target_entity: Cin5 (UniProt P40917)
Sequence: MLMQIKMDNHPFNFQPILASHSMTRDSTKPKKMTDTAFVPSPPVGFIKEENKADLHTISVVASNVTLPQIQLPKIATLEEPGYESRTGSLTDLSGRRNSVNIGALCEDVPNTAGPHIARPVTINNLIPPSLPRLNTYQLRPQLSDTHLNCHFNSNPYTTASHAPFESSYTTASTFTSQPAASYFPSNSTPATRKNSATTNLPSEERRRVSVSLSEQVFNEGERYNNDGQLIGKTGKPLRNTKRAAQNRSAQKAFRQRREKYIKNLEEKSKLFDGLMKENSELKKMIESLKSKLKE
test_name: PBM E-score (8-mer binding enrichment) (E-score (-0.5 to 0.5)); higher = stronger / more preferred TF binding
experimental_conditions: protein concentration: 100 nM; construct: GST-full length
In all, about 33,000 sequences were measured (“E-score (-0.5 to 0.5)”: median about -0.0059, highest 2% from about 0.26 on). Shown is part of a subset that was picked to be rich in the highest values.
Each entry gets f if its PBM E-score stays under 0.03, and t if its PBM E-score is 0.03 or above.

| query_sequence | class |
| --- | --- |
| CCTGCGAG | f |
| CTGTGATA | f |
| CAAACTAA | t |
| GAACGTCA | f |
| TTAACTAA | t |
| GAGGTCCA | f |
| GTAAGTAA | t |
| CTAAGCAG | t |
| AGGGCCAC | f |
| GTCAGCAA | t |
| GCGATCTA | t |
| CGACTTGA | f |
| TACCACCA | f |
| CCTGGACG | f |
| CCACGGAC | f |
| CAAACTAC | t |
| GTCACAAA | f |
| AACTCGGC | t |
| CAATATGA | t |
| CCTAACCC | f |
| TTCTCAAA | t |
| ACAAGCAA | t |
| CCGCCTAA | f |
| AATGAAAC | t |
| GACGGTCC | f |
| CTAACTAA | t |
| AGGATATA | t |
| CTAAGCAA | t |
| TTAAGTAA | t |
| AAAACTAT | t |
| ATAAGCAT | t |
| TAAACTAA | t |
| ATTGGCGG | f |
| TAATACTA | t |
| CTGGACCA | f |
| GCTCTATA | f |
| AAAACTAA | t |
| ACGCAATA | t |
| ATAAGCAA | t |
| AAATACTA | t |
| GGAGCTAC | f |
| CCCCATAA | f |
| GAAACTAA | f |
| CTAAGTAA | t |
| GAATACTA | t |
| ACGGTGCA | f |

###

target_entity: Cin5 (UniProt P40917)
Sequence: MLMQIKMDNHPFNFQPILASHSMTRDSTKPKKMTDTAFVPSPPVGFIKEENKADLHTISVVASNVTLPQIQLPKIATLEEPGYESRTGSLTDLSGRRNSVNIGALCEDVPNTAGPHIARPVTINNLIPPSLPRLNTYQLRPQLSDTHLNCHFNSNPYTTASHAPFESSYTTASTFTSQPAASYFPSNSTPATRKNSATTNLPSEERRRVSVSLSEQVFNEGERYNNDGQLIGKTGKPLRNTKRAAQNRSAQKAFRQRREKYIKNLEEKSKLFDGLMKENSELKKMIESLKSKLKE
test_name: PBM E-score (8-mer binding enrichment) (E-score (-0.5 to 0.5)); higher = stronger / more preferred TF binding
experimental_conditions: protein concentration: 100 nM; construct: GST-full length
In all, about 33,000 sequences were measured (“E-score (-0.5 to 0.5)”: median about -0.0059, highest 2% from about 0.26 on). For the sample, the highest values were picked, then their nearest neighbours and some sequences at random.
Short version: PBM E-score at least 0.06 is class 1, less is class 0.

| query_sequence | class |
| --- | --- |
| ATCATAAT | class 1 |
| CGCGCCGA | class 0 |
| ACGTCATG | class 1 |
| CCCTAAGC | class 0 |
| TAATGATA | class 1 |
| AACATACG | class 1 |
| ATCATAAG | class 1 |
| ACCATTGG | class 0 |
| ACGTCATC | class 1 |
| ATTATCAG | class 1 |
| CTCAGATC | class 1 |
| CTTCAAAA | class 0 |
| CCCCCTTA | class 0 |
| GGGACACC | class 0 |
| CGGGCCTC | class 0 |
| ATCTAATA | class 1 |
| AGACTCCG | class 0 |
| ATTCATTA | class 1 |
| AAATGGTA | class 1 |
| ACAATCGA | class 1 |
| CACATAAG | class 1 |
| AGGACCGG | class 0 |
| GCGTCAGC | class 0 |
| TAATGACA | class 1 |
| ATCTAATG | class 0 |
| CCGTCATC | class 0 |
| GAATGATA | class 1 |
| GAATGATC | class 0 |
| ACCACAAG | class 0 |
| AGGTATCC | class 0 |
| CTTGAGCA | class 0 |
| AGTTACTC | class 0 |
| CAGTCAGC | class 0 |
| ACGTCAGT | class 0 |
| GGGAATGA | class 1 |
| GCGAATTA | class 1 |
| ATCCCTAA | class 0 |
| AGCCACCT | class 0 |
| GAATGAGA | class 1 |
| CGGAATGA | class 1 |
| GCCTAAGC | class 0 |
| TAATGAGA | class 0 |
| ATTCATTC | class 1 |
| GTTATCAA | class 0 |
| CTAAGGCA | class 0 |
